# Test system: BT-549
# MEASUREMENT_NOTES: NCI tumour cell line growth inhibition, 48 h
The source made the active and inactive calls. No stated cut-off is given here; in the data, active = GI50 up to about 1.1 µM and inactive = higher.
Outcomes: t = active, f = inactive

Cc1ccc(C2(O)CS/C(=N\C34CC5CC(CC(C5)C3)C4)N2C(P(=O)(O)O)P(=O)(O)O)cc1 (stereo not drawn)	f
S=C1c2ccccc2N=C(NC2CCCC2)C2CSCN12 (stereo not drawn)	f
O=C1C(NCCc2ccc(O)c(O)c2)=CC(=O)c2ncccc21	f
C=C(C)/C=C/C(O)[C@](C)(O)[C@H]1[C@H](O)C[C@@]2(C)[C@@H]3CCc4c(cc(OC5OC(CO)C(O)C(O)C5O)c(O)c4C)C3(C)C(=O)C[C@]12C (stereo partly drawn)	f
C=C(Nc1ccc([N+](=O)[O-])cc1[N+](=O)[O-])c1c/c(=N\NC(N)=S)c2ccccc2o1	f
O=C(NCCN1CCOCC1)c1ccc2cc(C(=O)N3CC(CCl)c4ccc([N+](=O)[O-])cc43)[nH]c2c1 (stereo not drawn)	f
COC12OC3CC4(C)C(=CC3OC(OC(C)C1O)C2O)CCC1C4CCC2(C)C(c3ccc(=O)oc3)CCC12O (stereo not drawn)	t
CN1CC(c2ccccc2)N(CCCCN2CC(c3ccccc3)N(C)CC2c2ccccc2)CC1c1ccccc1 (stereo not drawn)	f
